Biological target: T1, human IL-13 wild type (human, UniProt P35225 35-146)
T1 construct: also called h IL-13; h IL-13 wt
T1 sequence (P35225 other isoform, or with tags, fused parts or gaps limits assumed): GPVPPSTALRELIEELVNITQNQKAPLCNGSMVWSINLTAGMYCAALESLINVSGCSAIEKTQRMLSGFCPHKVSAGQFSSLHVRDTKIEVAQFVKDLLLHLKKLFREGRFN
Experiment: SPR (Biacore), mAb captured, IL-13 as analyte
Reported pKd values for the following binders.
Friendly reminder that pKd comes from taking -log10 of the concentration in mol/L.

Worked set:
Binder	Recorded Endpoint	Measured Number
33C3 (antibody, V domains shown) VH: QVTLKESGPGILQPSQTLSLTCSFSGFSLSTSDLGVGWIRQPSGKGLEWLAHIWWDDVKRYNPALKSRLTISKDTSSSQVFLMIASVDTADTATYYCARIGSSGYIYYEMDYWGQGTSVTVSS VL: DIQMTQTTSSLSASLGDRVTITCRASQDIRNYLNWYQQKPDGTVKLLIYYTSRLHSGVPSRFSGSGSGTDYSLTISNLDQEDIATYFCQQGNTLPLTFGGGTRLEIKR	pKd	10.19
9C11 (antibody, V domains shown) VH: QVRLQQPGAELVRPGASVKLSCKASGYTFTSSWIHWVNQRPGQGLEWIGMIHPSDSETRLNQKFKDKATLTVDKSSSTAYMQLSSPTSEDSAVYYCASTATDFDYWGQGTTLTVSS VL: DVVLTQTPLSLPVNIGDQASISCRSTQTLLNSDGFTYLDWYLQKPGQSPQLLIYLVSNRFSGVPDRFSGSGSGTDFTLKISRVEAEDLGVYYCFQNNYLPLTFGAGTKLELKR	pKd	9.95
8B6 (antibody, V domains shown) VH: QVQLKESGPGLVAPSQSLSITCTVSGFSLTGHNINWVRQPPGKGLEWLGMIWGDGNTDFNSALKSRLSISKDNSKSQVFLKLNSLQTDDTARYYCARDGYYPYAIKFWGQGTSVTVSS VL: HIVLTQSPASLAVSLGQRATISCRASETVDSYGSSFLHWYQQKPGQPPKLLIYLASKLESGVPARFSGSGSRTDFTLTIDPVEADDAATYYCQQNNEGPRTFGGGSKLEIKR	pKd	9.28
22D10 (antibody, V domains shown) VH: QVQLQQSGDDLVKPGASVKLSCKASGYTFTSYWINWIKQRPGQGLEWIGHIAPGSGETYDNEMFKDKAKLTVDTSSSTAYIHLSSLSSEDSAVYFCARGSFTFFYAMDYWGQGTSVTVSS VL: DVLMTQTPLSLPVSLGDQASISCRSSQNIVHSNGKTYLEWYLQRPGQSPKLLIYKVSNRFSGVPDRFSGSGSGTDFTLKISRVEAEDLGVYYCFQGSHVPYTFGGGTKLEIKR	pKd	9.45

Now look at this entry.
Enquiry: GET /values?readout=pKd&item= 21D9 (antibody, V domains shown) VH: QVQLQQSGDDLVKPGASVKLSCKASGYTFTSYWINWIKQRPGQGLEWIGHIAPGSGETYDNEMFKDKAKLTVDTSSNTAYIHLSSLSSEDSAVYFCARGSFTFFYAMDYWGQGTSVTVSS VL: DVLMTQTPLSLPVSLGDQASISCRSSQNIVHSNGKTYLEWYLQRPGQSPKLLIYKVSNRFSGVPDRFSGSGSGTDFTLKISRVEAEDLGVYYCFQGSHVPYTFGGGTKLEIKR
Return: 10.11
